# target: T1, human GLP-2 receptor (human, UniProt O95838 1-553)
# T1 sequence (looked up): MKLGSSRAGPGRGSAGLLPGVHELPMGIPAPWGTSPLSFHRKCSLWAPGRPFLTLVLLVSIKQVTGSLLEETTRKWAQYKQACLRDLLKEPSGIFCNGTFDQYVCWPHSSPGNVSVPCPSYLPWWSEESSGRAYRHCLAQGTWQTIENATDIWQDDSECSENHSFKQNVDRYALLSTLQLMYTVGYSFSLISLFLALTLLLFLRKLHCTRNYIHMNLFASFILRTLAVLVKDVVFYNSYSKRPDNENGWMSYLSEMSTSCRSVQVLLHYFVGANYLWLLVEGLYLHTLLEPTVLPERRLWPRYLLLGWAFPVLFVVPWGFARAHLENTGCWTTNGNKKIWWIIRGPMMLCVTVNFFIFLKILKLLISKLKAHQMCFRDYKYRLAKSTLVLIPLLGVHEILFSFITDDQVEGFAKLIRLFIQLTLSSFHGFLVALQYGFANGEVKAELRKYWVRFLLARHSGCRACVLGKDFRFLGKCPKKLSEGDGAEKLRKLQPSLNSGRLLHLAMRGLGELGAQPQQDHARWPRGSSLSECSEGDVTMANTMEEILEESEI
# experimental_protocol: cell-based or functional assay
Would you kindly list Emax (10 µM), % of native GLP-2 for each of these binders?
I only need the number, in %, no unit after it.

The value of Emax (10 µM), % of native GLP-2 measured for the binder HADGTFISDYSTILDNLAARDFINWLIQTKIKD [GIP-GLP-2 co-agonist 17] turned out to be 88

The value of Emax (10 µM), % of native GLP-2 measured for the binder HAEGTFISDYSIAMDKLAARDFINWLIQTKITD [GIP-GLP-2 co-agonist 7] turned out to be 78

The value of Emax (10 µM), % of native GLP-2 measured for the binder HADGTFISDYSTILDNLAARDFINWLIQTKITD [GIP-GLP-2 co-agonist 3] turned out to be 100

The value of Emax (10 µM), % of native GLP-2 measured for the binder HADGTFIDDYSTILDNLAARDFINWLIQTKITD [GIP-GLP-2 co-agonist 14] turned out to be 90
